Would you mind telling me the reported IC50 of each entry?
Target: T1, linear diubiquitin (Boston Biochem) (human, UniProt P0CG48 1-152)
T1 construct: Bought product
Experiment: phage IC50 competition ELISA with soluble linear diubiquitin
Give the quantity in nM, number only.

Task: Which IC50 value is on record for 2H5/4G7 double mutant, Fab displayed on phage (Fab, name in Kabat numbering, V domains shown) VH: EVQLVESGGGLVQPGGSLRLSCAASGFTFSNTYISWVRQAPGKGLEWVASITPSSGSTDYADSVKGRFTISADTSKNTAYLQMNSLRAEDTAVYYCARTWLLRWVMDGWGQGTLVTVSS VL: DIQMTQSPSSLSASVGDRVTITCRASQDVSTAVAWYQQKPGKAPKLLIYSASFLYSGVPSRFSGSGSGTDFTLTISSLQPEDFATYYCQQSYTNPPTFGQGTKVEIK ?
Output: 23

Task: Which IC50 value is on record for 2H5/3F5 double mutant, Fab displayed on phage (Fab, name in Kabat numbering, V domains shown) VH: EVQLVESGGGLVQPGGSLRLSCAASGFTFSNTYISWVRQAPGKGLEWVASITPSSGQTDYADSVKGRFTISADTSKNTAYLQMNSLRAEDTAVYYCARTWLLRWVMDYWGQGTLVTVSS VL: DIQMTQSPSSLSASVGDRVTITCRASQDVSTAVAWYQQKPGKAPKLLIYSASFLYSGVPSRFSGSGSGTDFTLTISSLQPEDFATYYCQQSYTNPPTFGQGTKVEIK ?
Output: 8

Task: Which IC50 value is on record for 2H5/3E4 double mutant, Fab displayed on phage (Fab, name in Kabat numbering, V domains shown) VH: EVQLVESGGGLVQPGGSLRLSCAASGFTFSNTYMSWVRQAPGKGLEWVASITPSSGSTDYADSVKGRFTISADTSKNTAYLQMNSLRAEDTAVYYCARTWLLRWVMDYWGQGTLVTVSS VL: DIQMTQSPSSLSASVGDRVTITCRASQDVSTAVAWYQQKPGKAPKLLIYSASFLYSGVPSRFSGSGSGTDFTLTISSLQPEDFATYYCQQSYTNPPTFGQGTKVEIK ?
Output: 26
